IC50 reference
# SUBJECT OF TEST: NaV 1.8 channel (Homo sapiens)
# Sequence (Q9Y5Y9 whole entry): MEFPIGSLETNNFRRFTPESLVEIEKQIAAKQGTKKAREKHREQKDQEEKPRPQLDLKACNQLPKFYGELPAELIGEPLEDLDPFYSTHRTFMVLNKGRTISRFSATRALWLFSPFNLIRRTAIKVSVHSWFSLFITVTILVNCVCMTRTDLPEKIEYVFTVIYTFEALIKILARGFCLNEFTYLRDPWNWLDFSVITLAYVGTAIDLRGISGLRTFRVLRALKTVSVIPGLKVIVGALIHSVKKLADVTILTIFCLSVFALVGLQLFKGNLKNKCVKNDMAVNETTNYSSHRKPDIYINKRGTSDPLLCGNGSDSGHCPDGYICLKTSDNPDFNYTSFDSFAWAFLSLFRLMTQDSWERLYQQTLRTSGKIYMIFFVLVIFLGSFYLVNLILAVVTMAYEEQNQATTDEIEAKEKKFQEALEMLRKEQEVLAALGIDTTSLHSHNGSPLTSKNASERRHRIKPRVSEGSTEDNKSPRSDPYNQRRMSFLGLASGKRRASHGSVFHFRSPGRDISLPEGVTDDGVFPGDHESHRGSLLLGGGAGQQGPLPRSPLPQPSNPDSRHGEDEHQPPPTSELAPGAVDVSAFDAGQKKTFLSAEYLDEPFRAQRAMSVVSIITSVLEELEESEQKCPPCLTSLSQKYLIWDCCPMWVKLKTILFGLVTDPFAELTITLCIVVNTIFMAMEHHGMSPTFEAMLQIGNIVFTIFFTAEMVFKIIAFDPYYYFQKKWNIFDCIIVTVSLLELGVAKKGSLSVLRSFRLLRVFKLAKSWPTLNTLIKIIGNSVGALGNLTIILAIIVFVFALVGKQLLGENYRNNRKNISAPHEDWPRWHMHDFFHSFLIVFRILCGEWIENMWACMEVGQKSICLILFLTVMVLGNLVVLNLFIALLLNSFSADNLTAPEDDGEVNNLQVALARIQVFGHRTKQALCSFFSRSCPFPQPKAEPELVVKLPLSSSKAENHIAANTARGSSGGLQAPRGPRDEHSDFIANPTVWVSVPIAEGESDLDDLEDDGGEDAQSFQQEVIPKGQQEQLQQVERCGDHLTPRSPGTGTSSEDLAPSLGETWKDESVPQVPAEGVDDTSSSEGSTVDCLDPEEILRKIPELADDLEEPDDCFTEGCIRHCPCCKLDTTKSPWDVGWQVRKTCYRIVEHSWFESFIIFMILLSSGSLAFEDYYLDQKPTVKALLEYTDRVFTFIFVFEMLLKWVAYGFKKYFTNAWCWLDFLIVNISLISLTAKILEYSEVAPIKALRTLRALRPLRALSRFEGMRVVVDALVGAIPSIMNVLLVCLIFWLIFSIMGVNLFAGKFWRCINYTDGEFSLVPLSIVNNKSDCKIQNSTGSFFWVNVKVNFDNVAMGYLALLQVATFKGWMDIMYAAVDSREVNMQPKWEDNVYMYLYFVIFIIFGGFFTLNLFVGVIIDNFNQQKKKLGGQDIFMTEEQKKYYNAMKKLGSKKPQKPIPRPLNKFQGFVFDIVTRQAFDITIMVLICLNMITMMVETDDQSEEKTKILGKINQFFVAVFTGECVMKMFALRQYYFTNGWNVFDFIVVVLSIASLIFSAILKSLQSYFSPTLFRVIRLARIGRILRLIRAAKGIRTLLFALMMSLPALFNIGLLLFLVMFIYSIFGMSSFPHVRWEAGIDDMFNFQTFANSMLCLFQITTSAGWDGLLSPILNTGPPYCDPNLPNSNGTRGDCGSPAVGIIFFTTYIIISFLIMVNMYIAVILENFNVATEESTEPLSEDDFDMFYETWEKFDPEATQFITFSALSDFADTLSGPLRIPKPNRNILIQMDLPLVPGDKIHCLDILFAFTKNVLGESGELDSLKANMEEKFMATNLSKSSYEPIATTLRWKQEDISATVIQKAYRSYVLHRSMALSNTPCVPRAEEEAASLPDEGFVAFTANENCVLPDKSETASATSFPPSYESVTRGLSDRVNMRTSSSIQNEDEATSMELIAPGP
# TEST DETAILS: Activity against NaV 1.8 channel (optical membrane potential assay)

As a guide, the following entries are already answered.
CCCC(O)C(=O)N1CCN(c2nc(-c3ccccc3O)nc3cc(C)ccc23)CC1 (centres unmarked); 2 to 10 µM
Cc1ccc2c(N3CCN(C(=O)OCC4CCOC4)CC3)nc(-c3c(O)cccc3F)nc2c1 (centres unmarked); 2 to 10 µM
CSCCC(O)C(=O)N1CCN(c2nc(-c3ccccc3O)nc3cc(C)ccc23)CC1 (centres unmarked); 2 to 10 µM
Cc1ccc2c(N3CC[C@@H](CNC(=O)OC(C)C)C3)nc(-c3c(O)cccc3F)nc2c1; < 2 µM

Here is the next item to consider.
Inquiry: // query IC50 value for entry Cc1ccc2c(N3CCN(C(=O)OCc4cccc5c4OCO5)CC3)nc(-c3ccccc3O)nc2c1
Reply text: > 10 µM

Data origin: patent US7928107B2
